B1: tRNA (parent)
chain: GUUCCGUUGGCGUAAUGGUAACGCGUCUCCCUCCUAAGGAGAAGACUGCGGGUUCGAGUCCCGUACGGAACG

Variants of: B1
Test: yeast fitness relative to wild type (ratio to wild type); higher = fitter; tRNA-Arg(CCU), competitive growth, 37 C, YPD
Fewer inactive variants are shown than the library holds.
# yeast fitness annotations
Could you respond with only the numeric value?

Solved entries (count: 10):
For the variant C5A C60A , give its measured yeast fitness value.
0.651

For the variant G17C A69C , give its measured yeast fitness value.
0.658

For the variant G18A G25C A43U , give its measured yeast fitness value.
0.6

For the variant G44C C61A C66U , give its measured yeast fitness value.
0.824

For the variant U3G C62U , give its measured yeast fitness value.
0.873

For the variant U32G C61U A69C , give its measured yeast fitness value.
0.746

For the variant C11U C46G , give its measured yeast fitness value.
0.986

For the variant `G56C` , give its measured yeast fitness value.
0.663

For the variant U13C C49A , give its measured yeast fitness value.
0.795

For the variant C24G C27U A37G , give its measured yeast fitness value.
0.536

Next:
For the variant C22U G38C A65U C66U , give its measured yeast fitness value.
0.547

For the variant A21G G41A C60U , give its measured yeast fitness value.
0.574

For the variant G6A A14C A42U G56A G63C , give its measured yeast fitness value.
0.511
